- assayed.target: Nav 1.7 (Homo sapiens (Human), UniProt Q15858)
- Sequence (Q15858 whole entry): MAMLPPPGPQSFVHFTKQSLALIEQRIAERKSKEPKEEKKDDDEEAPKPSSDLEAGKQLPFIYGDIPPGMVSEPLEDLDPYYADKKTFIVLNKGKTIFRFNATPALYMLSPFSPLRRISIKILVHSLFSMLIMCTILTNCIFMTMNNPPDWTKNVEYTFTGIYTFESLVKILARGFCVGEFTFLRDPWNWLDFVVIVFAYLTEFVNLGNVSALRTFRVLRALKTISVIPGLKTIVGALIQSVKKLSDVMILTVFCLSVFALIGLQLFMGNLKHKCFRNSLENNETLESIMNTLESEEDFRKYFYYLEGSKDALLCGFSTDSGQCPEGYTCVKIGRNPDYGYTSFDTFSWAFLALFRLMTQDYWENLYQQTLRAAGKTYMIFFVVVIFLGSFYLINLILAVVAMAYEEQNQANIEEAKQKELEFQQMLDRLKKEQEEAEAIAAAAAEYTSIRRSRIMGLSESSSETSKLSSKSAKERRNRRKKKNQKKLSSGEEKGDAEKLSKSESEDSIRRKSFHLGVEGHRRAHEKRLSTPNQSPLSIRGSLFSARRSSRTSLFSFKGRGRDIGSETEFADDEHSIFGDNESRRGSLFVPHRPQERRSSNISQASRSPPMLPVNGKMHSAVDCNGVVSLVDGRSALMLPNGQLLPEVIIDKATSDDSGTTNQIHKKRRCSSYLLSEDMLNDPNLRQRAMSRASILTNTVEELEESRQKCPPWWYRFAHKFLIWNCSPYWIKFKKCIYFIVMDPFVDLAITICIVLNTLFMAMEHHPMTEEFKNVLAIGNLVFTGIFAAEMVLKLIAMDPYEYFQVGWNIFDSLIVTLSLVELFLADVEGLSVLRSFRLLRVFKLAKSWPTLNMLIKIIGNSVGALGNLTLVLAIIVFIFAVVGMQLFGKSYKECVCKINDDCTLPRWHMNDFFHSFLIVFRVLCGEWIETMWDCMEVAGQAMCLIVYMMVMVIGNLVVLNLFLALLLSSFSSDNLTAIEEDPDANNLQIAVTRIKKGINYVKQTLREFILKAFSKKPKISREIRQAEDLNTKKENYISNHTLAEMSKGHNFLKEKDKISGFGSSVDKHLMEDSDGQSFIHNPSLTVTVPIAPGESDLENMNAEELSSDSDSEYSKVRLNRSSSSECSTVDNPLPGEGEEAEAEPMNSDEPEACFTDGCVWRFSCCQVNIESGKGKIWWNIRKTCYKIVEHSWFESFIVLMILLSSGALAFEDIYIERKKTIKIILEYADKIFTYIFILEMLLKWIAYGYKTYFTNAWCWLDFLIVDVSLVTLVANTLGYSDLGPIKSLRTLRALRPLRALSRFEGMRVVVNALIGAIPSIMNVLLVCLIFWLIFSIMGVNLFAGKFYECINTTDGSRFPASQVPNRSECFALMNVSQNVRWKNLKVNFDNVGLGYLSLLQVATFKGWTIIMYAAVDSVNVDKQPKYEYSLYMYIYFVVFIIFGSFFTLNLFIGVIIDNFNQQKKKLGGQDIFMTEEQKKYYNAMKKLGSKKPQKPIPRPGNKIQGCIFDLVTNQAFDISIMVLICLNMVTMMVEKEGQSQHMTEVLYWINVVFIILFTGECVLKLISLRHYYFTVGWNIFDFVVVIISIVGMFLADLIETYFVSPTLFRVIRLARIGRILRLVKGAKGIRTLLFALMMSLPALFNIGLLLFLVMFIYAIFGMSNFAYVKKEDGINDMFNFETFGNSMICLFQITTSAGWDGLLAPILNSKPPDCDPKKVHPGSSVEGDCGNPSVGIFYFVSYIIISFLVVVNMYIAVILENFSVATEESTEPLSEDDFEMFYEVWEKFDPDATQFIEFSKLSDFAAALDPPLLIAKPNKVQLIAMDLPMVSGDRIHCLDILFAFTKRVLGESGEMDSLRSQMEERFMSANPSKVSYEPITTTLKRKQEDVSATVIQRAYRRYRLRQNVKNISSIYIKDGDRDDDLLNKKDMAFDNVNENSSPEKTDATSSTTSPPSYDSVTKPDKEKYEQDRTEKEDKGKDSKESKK
- assay.explanation: Inhibition of sodium channels, Red Membrane Potential Dye FLIPR assay, veratridine depolarization
- Type: cell-based
- measurement.parameters: HEK-293 cells overexpressing the channel; read-out: Nav1.7 IC50
readout.label: pIC50
# reply with the number alone; pIC50 is -log10 of concentration in mol/L

Known pIC50 results, listed for orientation:
O=C(O)c1ccc(-c2cc(C(F)(F)F)ccc2[C@H]2CCOc3cc(S(=O)(=O)Nc4ncccn4)ccc32)cc1 = 7.17
CS(=O)(=O)CCc1cc(C(F)(F)F)ccc1[C@H]1CCOc2cc(S(=O)(=O)Nc3cccc(F)n3)ccc21 = 7.70
O=C(O)c1ccc(-c2cc(C(F)(F)F)ccc2[C@H]2CCOc3cc(S(=O)(=O)Nc4ncc(F)cn4)ccc32)cc1 = 6.59

Any idea what pIC50 came out for CCCc1cc(C(F)(F)F)ccc1[C@@H]1CCOc2cc(S(=O)(=O)Nc3ncccn3)ccc21 on Nav 1.7 (Homo sapiens (Human), UniProt Q15858)? 5.76

====

- assayed.target: Nav 1.5 (Homo sapiens (Human))
- Sequence (Q14524 whole entry): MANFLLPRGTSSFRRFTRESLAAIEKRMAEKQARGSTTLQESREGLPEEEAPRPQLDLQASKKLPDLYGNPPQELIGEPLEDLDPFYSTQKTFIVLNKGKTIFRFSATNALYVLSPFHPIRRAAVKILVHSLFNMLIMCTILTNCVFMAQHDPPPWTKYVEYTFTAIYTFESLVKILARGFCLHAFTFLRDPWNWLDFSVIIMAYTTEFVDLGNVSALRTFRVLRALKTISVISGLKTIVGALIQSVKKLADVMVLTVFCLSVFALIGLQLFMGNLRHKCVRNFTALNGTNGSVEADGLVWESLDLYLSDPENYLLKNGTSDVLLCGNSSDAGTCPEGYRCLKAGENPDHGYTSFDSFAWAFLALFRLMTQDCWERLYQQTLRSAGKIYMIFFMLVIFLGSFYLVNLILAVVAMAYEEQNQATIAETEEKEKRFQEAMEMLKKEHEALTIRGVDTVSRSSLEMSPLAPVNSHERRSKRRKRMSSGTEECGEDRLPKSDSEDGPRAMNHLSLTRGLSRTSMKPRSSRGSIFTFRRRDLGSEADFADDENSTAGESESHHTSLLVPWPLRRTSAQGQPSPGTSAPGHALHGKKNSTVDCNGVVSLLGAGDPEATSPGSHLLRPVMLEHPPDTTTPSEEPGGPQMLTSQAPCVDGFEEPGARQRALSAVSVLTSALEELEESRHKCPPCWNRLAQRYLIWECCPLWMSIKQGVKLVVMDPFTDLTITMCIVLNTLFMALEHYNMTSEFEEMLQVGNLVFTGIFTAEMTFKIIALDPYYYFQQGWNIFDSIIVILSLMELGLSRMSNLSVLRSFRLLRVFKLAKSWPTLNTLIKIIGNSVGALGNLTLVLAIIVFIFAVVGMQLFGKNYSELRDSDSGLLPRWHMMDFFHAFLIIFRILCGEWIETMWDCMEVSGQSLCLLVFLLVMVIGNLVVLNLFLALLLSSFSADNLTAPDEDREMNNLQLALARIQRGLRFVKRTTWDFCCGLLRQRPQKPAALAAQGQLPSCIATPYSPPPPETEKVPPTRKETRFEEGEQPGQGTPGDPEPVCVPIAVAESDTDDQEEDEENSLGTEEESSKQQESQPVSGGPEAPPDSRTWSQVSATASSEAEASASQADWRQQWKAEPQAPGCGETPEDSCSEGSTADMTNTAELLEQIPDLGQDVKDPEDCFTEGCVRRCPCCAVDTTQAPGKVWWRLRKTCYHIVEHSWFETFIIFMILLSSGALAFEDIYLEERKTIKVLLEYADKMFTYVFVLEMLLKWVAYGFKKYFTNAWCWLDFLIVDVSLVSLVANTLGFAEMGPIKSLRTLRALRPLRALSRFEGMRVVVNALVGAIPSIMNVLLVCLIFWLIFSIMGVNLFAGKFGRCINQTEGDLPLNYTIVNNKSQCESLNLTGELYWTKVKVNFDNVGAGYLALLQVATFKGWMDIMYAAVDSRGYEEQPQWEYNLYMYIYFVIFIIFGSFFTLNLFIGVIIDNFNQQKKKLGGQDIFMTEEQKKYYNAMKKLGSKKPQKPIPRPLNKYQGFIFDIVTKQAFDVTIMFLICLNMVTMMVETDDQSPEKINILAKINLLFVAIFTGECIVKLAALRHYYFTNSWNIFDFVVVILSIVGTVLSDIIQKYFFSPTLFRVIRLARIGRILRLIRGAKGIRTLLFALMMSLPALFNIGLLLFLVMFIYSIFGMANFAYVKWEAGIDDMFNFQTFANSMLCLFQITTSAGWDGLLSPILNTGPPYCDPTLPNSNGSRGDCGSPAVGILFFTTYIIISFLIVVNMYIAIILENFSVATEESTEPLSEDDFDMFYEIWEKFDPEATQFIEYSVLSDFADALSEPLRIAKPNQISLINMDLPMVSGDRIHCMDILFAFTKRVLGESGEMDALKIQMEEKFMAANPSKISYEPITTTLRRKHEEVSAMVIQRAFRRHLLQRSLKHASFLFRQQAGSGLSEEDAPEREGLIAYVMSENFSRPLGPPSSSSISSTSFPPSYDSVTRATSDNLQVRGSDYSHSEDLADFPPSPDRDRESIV
- assay.explanation: Inhibition of sodium channels, Red Membrane Potential Dye FLIPR assay, veratridine depolarization
- Format: cell-based
- measurement.parameters: HEK-293 cells overexpressing the channel; 10 μM
Answer not fulfilled if Nav1.5 % inhibition @ 10 μM is under 70%, and fulfilled if it is 70% or more.

Examples from the recorded data:
O=S(=O)(Nc1ncccn1)c1ccc2c(c1)OCC[C@@H]2c1ccc(C(F)(F)F)cc1OC1COC1 = not fulfilled
Cc1ccnc(NS(=O)(=O)c2ccc3c(c2)OCC[C@H]3c2ccc(C(F)(F)F)cc2-c2ccnn2C)c1 = not fulfilled
Cc1nc(-c2cc(C(F)(F)F)ccc2[C@H]2CCOc3cc(S(=O)(=O)Nc4ccncn4)ccc32)cs1 = not fulfilled
COCCCOc1cc(C(F)(F)F)ccc1[C@H]1CCOc2cc(S(=O)(=O)Nc3ncccn3)ccc21 = not fulfilled
CCCc1cc(C(F)(F)F)ccc1[C@H]1CCOc2cc(S(=O)(=O)Nc3cccc(F)n3)ccc21 = fulfilled

Query compound follows.
Evaluate O=S(=O)(Nc1ncccn1)c1ccc2c(c1)OCCC2c1ccc(C(F)(F)F)cc1O[C@H]1CCOC1 (stereo partly shown) : Nav1.5 % inhibition @ 10 μM at minimum 70%? not fulfilled

====

- assayed.target: Nav 1.7 (Homo sapiens (Human), UniProt Q15858)
- assay.explanation: Inhibition of sodium channels, Red Membrane Potential Dye FLIPR assay, veratridine depolarization
- Type: cell-based
- measurement.parameters: HEK-293 cells overexpressing the channel; read-out: Nav1.7 IC50
The entries below are paired with their reported IC50.
The figure you give is taken to be in nM; do not add the unit.

Known IC50 results, listed for orientation:
COCCc1cc(C(F)(F)F)ccc1[C@H]1CCOc2cc(S(=O)(=O)Nc3cccnn3)ccc21 (racemic) [Example 139] = 33
O=S(=O)(Nc1cccnn1)c1ccc2c(c1)OCC[C@@H]2c1ccc(C(F)(F)F)cc1-c1ccc(F)cn1 [Example-200] = 0.5

Form field: reported IC50 of O=S(=O)(Nc1cccnn1)c1ccc2c(c1)OCC[C@H]2c1ccc(C(F)(F)F)cc1-c1ccc(F)cn1 [Example-199] 355

Form field: reported IC50 of COCCCc1cc(C(F)(F)F)ccc1[C@H]1CCOc2cc(S(=O)(=O)Nc3cccnn3)ccc21 (racemic) [Example 144] 86

Form field: reported IC50 of O=S(=O)(Nc1cccc(F)n1)c1ccc2c(c1)OCC[C@@H]2c1ccc(C(F)(F)F)cc1-n1cccn1 [Example 90] 15

Form field: reported IC50 of CCOc1ccc(-c2cc(C(F)(F)F)ccc2[C@H]2CCOc3cc(S(=O)(=O)Nc4ncc(F)cn4)ccc32)cn1 [Example 102] 39

Form field: reported IC50 of O=S(=O)(Nc1ncc(F)cn1)c1ccc2c(c1)OCC[C@@H]2c1ccc(C(F)(F)F)cc1CCC(F)F (racemic) [Example-212] 18
